From: patent US9657057B2

Molecular target: LMP7 (Homo sapiens, UniProt P20618+P28062)
Construct: endogenous in cells; host or cells: MOLT-4
Assay: ProCISE proteasome subunit assay, LMP7
Format: biochemical
Conditions: MOLT4 lysate Hu 1 h
measurement_label: pIC50
Give bare numbers, as −log10 of the molar value.

Guide cases for pIC50, answers given:
IN: Provide measured pIC50 on LMP7 (Homo sapiens, UniProt P20618+P28062) for COCCC(=O)N[C@H](C)C(=O)N[C@@H](Cc1ccc(OC)cc1)C(=O)N[C@@H](CC1CCCC1)C(=O)[C@@]1(C)CO1 [Compound C-2018] please.
OUT: 5.93

IN: Provide measured pIC50 on LMP7 (Homo sapiens, UniProt P20618+P28062) for COc1ccc(C[C@H](NC(=O)[C@@H](C)NC(=O)c2ncc[nH]2)C(=O)N[C@@H](CC2CCCC2)C(=O)[C@@]2(C)CO2)cc1 [Compound C-2034] please.
OUT: 4.71

Each compound below has a recorded value; state its pIC50.
1. COc1ccc(C[C@H](NC(=O)c2ccnc(N3CCOCC3)n2)C(=O)N[C@@H](Cc2ccccc2)C(=O)[C@@]2(C)CO2)cc1 [Compound C-3001]
2. COc1ccc(C[C@H](NC(=O)[C@@H](C)NC(=O)c2cnc(C)s2)C(=O)N[C@@H](CC2CCCC2)C(=O)[C@@]2(C)CO2)cc1 [Compound C-2026]
3. CC[C@](C)(O)CC(=O)N[C@H](C)C(=O)N[C@@H](Cc1ccc(OC)cc1)C(=O)N[C@@H](CC1CCCC1)C(=O)[C@@]1(C)CO1 [Compound C-2051]
4. COc1ccc(C[C@H](NC(=O)[C@@H](C)NC(=O)Cc2cc(C)no2)C(=O)N[C@@H](CC2CCCC2)C(=O)[C@@]2(C)CO2)cc1 [Compound C-2015]
5. COc1ccc(C[C@H](NC(=O)[C@@H](CC(=O)O)NC(=O)OCc2ccccc2)C(=O)N[C@@H](Cc2ccccc2)C(=O)[C@@]2(C)CO2)cc1 [Compound C-2017]
6. CC[C@@](C)(O)CC(=O)N[C@H](C)C(=O)N[C@@H](Cc1ccc(OC)cc1)C(=O)N[C@@H](CC1CCCC1)C(=O)[C@@]1(C)CO1 [Compound C-2052]
7. COc1ccc(C[C@H](NC(=O)[C@@H](C)NC(=O)C2=Cc3ccccc3C2)C(=O)N[C@@H](CC2CCCC2)C(=O)[C@@]2(C)CO2)cc1 [Compound C-2036]
8. COc1ccc(C[C@H](NC(=O)[C@@H](CO)NC(=O)c2cc(C)no2)C(=O)N[C@@H](CC2CCCC2)C(=O)[C@@]2(C)CO2)cc1 [Compound C-2030]

OUT:
[5.32, 6.77, 7.27, 5.51, 7.43, 7.41, 6.89, 6.50]

Each compound below has a recorded value; state its pIC50.
1. COc1ccc(C[C@H](NC(=O)[C@@H](C)NC(=O)CC(C)(C)O)C(=O)N[C@@H](Cc2ccccc2)C(=O)[C@@]2(C)CO2)cc1 [Compound C-2056]
2. COc1ccc(C[C@H](NC(=O)[C@@H](C)NC(=O)C2=C(C)c3ccccc3C2)C(=O)N[C@@H](CC2CCCC2)C(=O)[C@@]2(C)CO2)cc1 [Compound C-2040]
3. COc1ccc(C[C@H](NC(=O)[C@@H](C)NC(=O)CC(C)(C)O)C(=O)N[C@@H](CC2=CCCC2)C(=O)[C@@]2(C)CO2)cc1O [Compound C-2060]
4. COc1ccc(C[C@H](NC(=O)[C@@H](C)NC(=O)CC(C)(C)O)C(=O)N[C@@H](Cc2ccc(C)cc2)C(=O)[C@H]2CO2)cc1 [Compound C-2053]
5. COc1ccc(C[C@H](NC(=O)[C@H](C)NC(=O)C(F)(F)F)C(=O)N[C@@H](Cc2ccccc2)C(=O)[C@@]2(C)CO2)cc1 [Compound C-2011]

OUT:
[7.28, 7.13, 7.22, 8.74, 7.01]

Each compound below has a recorded value; state its pIC50.
1. COc1ccc(C[C@H](NC(=O)[C@@H](C)NC(=O)c2nc3ccccc3n2C)C(=O)N[C@@H](CC2CCCC2)C(=O)[C@@]2(C)CO2)cc1 [Compound C-2038]
2. COc1ccc(C[C@H](NC(=O)[C@H](C)NC(=O)CC(C)(C)O)C(=O)N[C@@H](CC2CCCC2)C(=O)[C@@]2(C)CO2)cc1 [Compound C-2027]
3. COc1ccc(C[C@H](NC(=O)[C@H](C)NC(=O)C(C)(F)F)C(=O)N[C@@H](Cc2ccccc2)C(=O)[C@@]2(C)CO2)cc1 [Compound C-2006]
4. COc1ccc(C[C@H](NC(=O)[C@@H](C)NC(=O)C[C@H](C)O)C(=O)N[C@@H](CC2CCCC2)C(=O)[C@@]2(C)CO2)cc1 [Compound C-2043]

OUT:
1: 6.54; 2: 6.21; 3: 7.46; 4: 6.23
